The reader will find reported PDI (polydispersity index) values listed item by item below.
assay: Physico-chemical characterization of LNPs made of different ionizable lipids (DLS, zeta potential); assay type: physicochemical; settings: mRNA LNPs: ionizable lipid, DSPC, Cholesterol, DMG-PEG 30:18:49.5:2.5 mole ratio

Here are 5 compounds together with their reported answers.
smiles_notation=CCCCCCN(CCCCCC)OC(=O)CCCCCCCCCN(CCO)CCCCCCCCCC(=O)ON(CCCCCC)CCCCCC result_value=0.07
smiles_notation=CCCCCCCCCCCCN(CCO)CCCCCCCCCC(=O)ON(CCCCCCCCCCCC)CCCCCCCCCCCC result_value=0.23
smiles_notation=CCCCCCCCCCCCN(CCCCCCCCCCCC)CC(=O)ON(CCCCCCCCCCCC)CCCCCCCCCCCC result_value=0.64
smiles_notation=CCCCC/C=C\C/C=C\CCCCCCCCN(CCO)CCCCCCCCCC(=O)ON(CCCCCCCCCCCC)CCCCCCCCCCCC result_value=0.24
smiles_notation=CCCCC/C=C\C/C=C\CCCCCCCCN(CCO)CCCCCCCCCCCOC(=O)CCCCCCCCCN(O)CCCCCCCCCCCC result_value=0.17

PDI (polydispersity index) recorded for this compound, CCCCCCCCCCCCN(CCO)CCCCCCCCCCOC(=O)CCCCCCCCCN(CCO)CCCCCCCCCCCC , is 0.13

PDI (polydispersity index) recorded for this compound, CCCCC/C=C\C/C=C\CCCCCCCCN(CCO)CCCCCCCCCCOC(=O)CCCCCCCCCN(CCO)CCCCCCCCCC(=O)OCCCCCCCCCCN(CCO)CCCCCCCC/C=C\C/C=C\CCCCC , is 0.45

PDI (polydispersity index) recorded for this compound, CCCCC/C=C\C/C=C\CCCCCCCCN(CCO)CCCCCCCCCCOC(=O)CCCCCCCCCN(CCO)CCCCCCCC/C=C\C/C=C\CCCCC , is 0.23

PDI (polydispersity index) recorded for this compound, CCCCCCN(CCCCCC)CCOC(=O)CCCCCCCCCN(CCO)CCCCCCCCCC(=O)OCCN(CCCCCC)CCCCCC , is 0.04

PDI (polydispersity index) recorded for this compound, CCCCC/C=C\C/C=C\CCCCCCCCN(CCO)CCCCCCCCCCOC(=O)CCCCCCCCCN(CCO)CCCCCCCCCCCC , is 0.17
